# subject-of-test: PI3Kα (Homo sapiens (Human), UniProt P42336)
# Sequence (P42336 whole entry, one chain of several): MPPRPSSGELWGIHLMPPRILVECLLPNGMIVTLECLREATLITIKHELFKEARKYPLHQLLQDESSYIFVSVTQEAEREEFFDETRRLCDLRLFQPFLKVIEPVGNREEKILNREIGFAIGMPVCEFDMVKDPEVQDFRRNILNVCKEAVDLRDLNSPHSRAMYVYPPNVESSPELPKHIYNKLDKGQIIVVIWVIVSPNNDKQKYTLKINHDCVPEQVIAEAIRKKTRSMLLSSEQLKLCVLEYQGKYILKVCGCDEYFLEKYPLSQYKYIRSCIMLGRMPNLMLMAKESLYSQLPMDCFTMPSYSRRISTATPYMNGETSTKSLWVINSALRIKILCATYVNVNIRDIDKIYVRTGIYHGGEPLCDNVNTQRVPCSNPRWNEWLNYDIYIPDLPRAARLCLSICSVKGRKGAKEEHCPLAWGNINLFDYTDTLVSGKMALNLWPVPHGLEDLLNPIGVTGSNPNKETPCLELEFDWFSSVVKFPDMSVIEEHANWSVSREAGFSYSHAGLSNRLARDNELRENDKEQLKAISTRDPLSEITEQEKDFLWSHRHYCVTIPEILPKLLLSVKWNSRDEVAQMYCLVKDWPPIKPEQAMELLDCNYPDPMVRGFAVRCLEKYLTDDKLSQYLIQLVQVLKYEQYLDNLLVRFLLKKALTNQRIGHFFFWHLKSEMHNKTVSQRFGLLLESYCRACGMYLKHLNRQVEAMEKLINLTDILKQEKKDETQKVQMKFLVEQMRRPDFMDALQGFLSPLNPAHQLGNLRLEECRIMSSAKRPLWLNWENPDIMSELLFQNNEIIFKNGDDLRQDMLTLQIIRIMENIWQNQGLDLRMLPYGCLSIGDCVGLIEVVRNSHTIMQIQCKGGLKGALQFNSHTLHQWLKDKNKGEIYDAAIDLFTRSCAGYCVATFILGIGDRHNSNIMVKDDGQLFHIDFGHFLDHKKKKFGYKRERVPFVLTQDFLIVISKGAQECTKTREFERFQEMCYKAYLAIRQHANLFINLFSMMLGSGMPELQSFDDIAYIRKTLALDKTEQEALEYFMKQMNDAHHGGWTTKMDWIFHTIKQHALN
# assay-method-text: Inhibition of PI3Kα efficacy assay (ADP-Glo kinase assay)
# Type: biochemical
# recorded-conditions: Table 4; read-out: PI3Kα inhibitory activity (IC50)
Rule: IC50 below 0.7 nM gives class 1. Equal to or above 0.7 nM gives class 0.

Sample answers from the record:
> print(dat)
                                   compound    label
1  CCC(=O)/C=C/C(=O)N1CCN(c2ncnc3ccc(-c4cnc(OC)c(NS(=O)(=O)c5c(F)cccc5F)c4)nc23)CC1 [Example 212]  class 0
2  COc1ncc(-c2ccc3ncnc(N4CCN(C(=O)/C=C/C(C)=O)CC4)c3n2)cc1NS(=O)(=O)c1c(F)cccc1Cl [Example 225]  class 1
3  COc1ncc(-c2ccc3ncnc(N4CCN(C(=O)/C=C/C(C)=O)[C@H](C)C4)c3n2)cc1NS(=O)(=O)c1ccccc1F [Example 228]  class 0

## Input Threshold test, IC50 < 0.7 nM: COc1ncc(-c2ccc3ncnc(N4CCN(C(=O)/C=C/C(C)=O)C[C@@H]4C)c3c2)cc1NS(=O)(=O)c1ccc(F)cc1 [Example 153]
## Output class 0

## Input Consider CSc1ncc(-c2ccc3ncnc(N4CCN(C(=O)/C=C/C(C)=O)CC4)c3c2)cc1NS(=O)(=O)c1ccc(F)cc1F [Example 182] . Does its IC50 lie strictly below 0.7 nM?
## Output class 1

## Input Does the reported IC50 of CCOc1ncc(-c2ccc3ncnc(N4CCN(C(=O)/C=C/C(C)=O)CC4)c3n2)cc1NS(=O)(=O)c1ccccc1F [Example 227] stay below 0.7 nM?
## Output class 0

###

# System: MIA PaCa-2 cells (KRAS G12C mutant)
# assay-method-text: MIA PaCa-2 cell anti-proliferation (CellTiter-Glo)
# Format: cell-based
# recorded-conditions: Homo sapiens, 72 h; MIA Paca-2 cells, 3 days, Table 7; read-out: MIA PaCa-2 (IC50)
observable: IC50 (nM)
Give bare numbers, in nM.

> print(dat)
                                smiles.data                      subject.of.test  display.unit  numeric.value
1  CC(=O)/C=C/C(=O)N1CCN(c2ncnc3ccc(-c4cnc(Cl)c(NS(=O)(=O)c5c(F)cccc5F)c4)cc23)CC1  MIA PaCa-2 cells (KRAS G12C mutant)            nM            245
2  COc1ncc(-c2ccc3ncnc(N4CCN(C(=O)/C=C/C(C)=O)CC4)c3c2)cc1NS(=O)(=O)c1c(F)cccc1F  MIA PaCa-2 cells (KRAS G12C mutant)            nM           92.1

Quick request: IC50 for each listed item, please.
1. COc1ncc(-c2ccc3ncnc(N4CCN(C(=O)/C=C/C(C)=O)C[C@@H]4C)c3c2)cc1NS(=O)(=O)c1c(F)cc(F)cc1F
2. COc1ncc(-c2ccc3ncnc(C4CCN(C(=O)/C=C/C(C)=O)CC4)c3c2)cc1NS(=O)(=O)c1c(F)cccc1F
3. COc1ncc(-c2ccc3ncnc(N4CCN(C(=O)/C=C/C(C)=O)[C@@H](CC#N)C4)c3c2)cc1NS(=O)(=O)c1c(F)cccc1F
4. COc1ncc(-c2ccc3ncnc(N4CCN(C(=O)/C=C/C(C)=O)C[C@@H]4C)c3n2)cc1NS(=O)(=O)c1c(F)cccc1F

## Output
1: 28.8; 2: 78.9; 3: 107; 4: 10.5

###

# subject-of-test: KRAS^G12C-SOS1 (Homo sapiens (Human), UniProt P01116, G12C)
# Sequence (P01116-2 other isoform, or with tags, fused parts or gaps G12C): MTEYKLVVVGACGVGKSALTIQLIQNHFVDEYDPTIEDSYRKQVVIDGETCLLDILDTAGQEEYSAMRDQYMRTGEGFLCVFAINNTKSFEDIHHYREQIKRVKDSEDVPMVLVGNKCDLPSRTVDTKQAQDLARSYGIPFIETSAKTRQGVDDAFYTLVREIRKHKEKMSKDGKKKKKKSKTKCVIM
# assay-method-text: HTRF KRAS G12C/SOS1 binding assay
# recorded-conditions: Table 5
observable: IC50 (nM)
Give bare numbers, in nM.

> print(dat)
                                   compound  display.unit  numeric.value
1  COc1ncc(-c2ccc3ncnc(C4=CCN(C(=O)/C=C/C(C)=O)CC4)c3c2)cc1NS(=O)(=O)c1ccc(F)cc1F            nM            133
2  COc1ncc(-c2ccc3ncnc(N4CC5CCC4CN5C(=O)/C=C/C(C)=O)c3c2)cc1NS(=O)(=O)c1ccc(F)cc1F (stereo not shown)            nM            191
3  COc1ncc(-c2ccc3ncnc(N4CCN(C(=O)/C=C/C(C)=O)CC4)c3c2)cc1NS(=O)(=O)c1ccc(C)cc1F            nM            364
4  CCOc1ncc(-c2ccc3ncnc(N4CCN(C(=O)/C=C/C(C)=O)CC4)c3c2)cc1NS(=O)(=O)c1ccc(F)cc1F            nM            499
5  COc1ncc(-c2ccc3ncnc(N4CCN(C(=O)/C=C/C(C)=O)CC4)c3c2)cc1NS(=O)(=O)c1ccncc1F            nM            203

Below are 6 compounds. Give each one its IC50.
1. COc1ncc(-c2ccc3ncnc(N4CCN(C(=O)/C=C/C(C)=O)CC4)c3c2)cc1NS(=O)(=O)c1c(F)cc(F)cc1F
2. COc1ncc(-c2ccc3ncnc(N4CCN(C(=O)/C=C/C(C)=O)CC4)c3c2)cc1NS(=O)(=O)c1cc(Cl)cn1C
3. COc1ncc(-c2ccc3ncnc(N4CCN(C(=O)/C=C/C(C)=O)C[C@@H]4C)c3c2)cc1NS(=O)(=O)c1sc(C)nc1C
4. COc1ncc(-c2ccc3ncnc(C4CCN(C(=O)/C=C/C(C)=O)CC4)c3n2)cc1NS(=O)(=O)c1ccc(F)cc1F
5. COc1ncc(-c2ccc3ncnc(N4CCC5(CC4)CN(C(=O)/C=C/C(C)=O)C5)c3c2)cc1NS(=O)(=O)c1ccccc1F
6. CC(=O)/C=C/C(=O)N1CCN(c2ncnc3ccc(-c4cnc(Cl)c(NS(=O)(=O)c5c(F)cccc5F)c4)cc23)CC1

## Output
188
169
199
292
236
268

For every record below, what is its IC50?
1. COc1ncc(-c2ccc3ncnc(N4CCN(C(=O)/C=C/C(C)=O)[C@@H](CC#N)C4)c3c2)cc1NS(=O)(=O)c1c(F)cccc1F
2. COc1ncc(-c2ccc3ncnc(N4CCN(C(=O)/C=C/C(C)=O)CC4)c3n2)cc1NS(=O)(=O)c1ccc(F)cc1F

## Output
[1570, 318]

###

# subject-of-test: PI3Kδ (Homo sapiens (Human))
# Sequence (O00329 whole entry): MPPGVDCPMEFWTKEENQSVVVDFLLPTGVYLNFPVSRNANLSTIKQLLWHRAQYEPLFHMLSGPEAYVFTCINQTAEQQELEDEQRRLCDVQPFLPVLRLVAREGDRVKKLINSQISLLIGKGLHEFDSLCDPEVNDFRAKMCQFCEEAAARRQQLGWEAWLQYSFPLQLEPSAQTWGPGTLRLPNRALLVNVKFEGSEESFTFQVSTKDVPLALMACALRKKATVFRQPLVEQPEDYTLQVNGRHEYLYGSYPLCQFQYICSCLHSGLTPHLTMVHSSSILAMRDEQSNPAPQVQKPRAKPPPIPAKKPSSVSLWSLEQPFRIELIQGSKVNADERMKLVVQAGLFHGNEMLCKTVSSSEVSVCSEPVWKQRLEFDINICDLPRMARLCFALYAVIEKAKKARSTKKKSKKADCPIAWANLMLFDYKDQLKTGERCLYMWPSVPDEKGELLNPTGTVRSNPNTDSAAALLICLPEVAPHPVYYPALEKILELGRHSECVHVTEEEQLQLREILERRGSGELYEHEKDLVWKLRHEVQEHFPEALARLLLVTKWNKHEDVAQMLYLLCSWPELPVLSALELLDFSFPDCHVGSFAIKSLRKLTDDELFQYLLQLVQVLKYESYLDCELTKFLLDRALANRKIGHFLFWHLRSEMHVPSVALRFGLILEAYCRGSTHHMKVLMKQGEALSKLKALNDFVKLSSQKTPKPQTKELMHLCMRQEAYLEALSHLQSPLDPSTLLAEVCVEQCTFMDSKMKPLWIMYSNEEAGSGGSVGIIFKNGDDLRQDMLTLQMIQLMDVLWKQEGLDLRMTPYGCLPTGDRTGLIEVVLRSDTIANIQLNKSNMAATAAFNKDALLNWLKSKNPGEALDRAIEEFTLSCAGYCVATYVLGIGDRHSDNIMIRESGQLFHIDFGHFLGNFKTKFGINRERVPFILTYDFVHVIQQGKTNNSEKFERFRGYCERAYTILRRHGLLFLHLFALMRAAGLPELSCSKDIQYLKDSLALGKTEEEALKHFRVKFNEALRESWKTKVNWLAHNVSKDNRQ
# Sequence (P27986 whole entry partner): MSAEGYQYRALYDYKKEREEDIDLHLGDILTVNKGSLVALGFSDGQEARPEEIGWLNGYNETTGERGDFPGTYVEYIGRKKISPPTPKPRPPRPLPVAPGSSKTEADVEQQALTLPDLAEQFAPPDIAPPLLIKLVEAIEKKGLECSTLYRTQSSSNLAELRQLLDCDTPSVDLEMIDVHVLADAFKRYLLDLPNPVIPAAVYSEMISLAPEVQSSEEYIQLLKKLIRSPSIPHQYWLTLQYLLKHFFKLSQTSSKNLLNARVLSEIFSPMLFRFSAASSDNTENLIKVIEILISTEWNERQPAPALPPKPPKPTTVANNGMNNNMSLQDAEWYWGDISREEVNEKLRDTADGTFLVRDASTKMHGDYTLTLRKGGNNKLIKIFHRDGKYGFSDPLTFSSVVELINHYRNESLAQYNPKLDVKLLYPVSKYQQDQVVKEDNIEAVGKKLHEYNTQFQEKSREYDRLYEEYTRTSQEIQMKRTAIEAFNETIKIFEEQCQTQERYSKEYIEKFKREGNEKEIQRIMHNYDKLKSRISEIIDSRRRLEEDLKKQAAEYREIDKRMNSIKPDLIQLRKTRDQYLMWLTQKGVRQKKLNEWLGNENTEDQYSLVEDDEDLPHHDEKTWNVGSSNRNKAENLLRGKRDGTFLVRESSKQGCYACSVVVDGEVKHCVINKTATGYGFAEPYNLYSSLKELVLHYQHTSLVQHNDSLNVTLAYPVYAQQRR
# assay-method-text: Inhibition of PI3Kδ efficacy assay (ADP-Glo kinase assay)
# Format: biochemical
# recorded-conditions: Table 2; read-out: PI3Kδ inhibitory activity (IC50)
observable: IC50 (µM)
Numbers only, in µM.

> print(dat)
                                smiles.data               subject.of.test  observable  numeric.value
1  COc1ncc(-c2ccc3ncnc(N4CCN(C(=O)/C=C/c5ncco5)CC4)c3c2)cc1NS(=O)(=O)c1ccc(F)cc1F  PI3Kδ (Homo sapiens (Human))        IC50         0.0125
2  CC(=O)/C=C/C(=O)N1CCN(c2ncnc3ccc(-c4cnc(O)c(NS(=O)(=O)c5ccc(F)cc5F)c4)cc23)CC1  PI3Kδ (Homo sapiens (Human))        IC50          0.142
3  COc1ncc(-c2ccc3ncnc(N4CCN(C(=O)/C=C/C(C)=O)CC4)c3c2)cc1NS(=O)(=O)c1cccc2cccc(Cl)c12  PI3Kδ (Homo sapiens (Human))        IC50          0.171

Value sought for every listed molecule: IC50.
1. COc1ncc(-c2ccc3ncnc(N4CCN(C(=O)C5=CC(=O)CCC5)CC4)c3c2)cc1NS(=O)(=O)c1ccc(Cl)s1
2. C=CC(=O)N1CCN(c2ncnc3ccc(-c4cnc(OC)c(N(C)S(=O)(=O)c5c(F)cccc5F)c4)cc23)CC1
3. COC/C=C/C(=O)N1CCN(c2ncnc3ccc(-c4cnc(OC)c(NS(=O)(=O)c5ccc(F)cc5F)c4)cc23)CC1
4. C=C(F)C(=O)N1CC2(CCN(c3ncnc4ccc(-c5cnc(OC)c(NS(=O)(=O)c6c(F)cccc6F)c5)cc34)CC2)C1
5. COc1ncc(-c2ccc3ncnc(N4CCC5(CC=CC5=O)CC4)c3c2)cc1NS(=O)(=O)c1c(F)cccc1F

## Output
0.0165
0.0756
0.0146
0.0252
0.0315

###

Exercise: for every item that follows, state its recorded IC50.
# subject-of-test: PI3Kα (Homo sapiens (Human))
# assay-method-text: Inhibition of PI3Kα efficacy assay (ADP-Glo kinase assay)
# Format: biochemical
# recorded-conditions: Table 4; read-out: PI3Kα inhibitory activity (IC50)

> print(dat)
                                   compound  result
1  C=C(C(=O)N1CCN(c2ncnc3ccc(-c4cnc(OC)c(NS(=O)(=O)c5ccc(F)cc5F)c4)cc23)CC1)C(C)O (stereo not drawn)  2.2 nM

Please supply IC50 for each of the following items, keeping them in order.
1. COc1ncc(-c2ccc3ncnc(C4CCN(C(=O)/C=C/C(C)=O)CC4)c3n2)cc1NS(=O)(=O)c1c(F)cccc1F
2. COc1ncc(-c2ccc3ncnc(N4CCN(C(=O)/C=C/C(C)=O)CC4)c3n2)cc1NS(=O)(=O)c1cccc(F)c1F

## Output
1: 4 nM; 2: 2.6 nM
